- TEST_SYSTEM: human MRGPR X4 (Homo sapiens, UniProt Q96LA9)
- Construct: expressed in transfected cells
- Sequence (Q96LA9 whole entry): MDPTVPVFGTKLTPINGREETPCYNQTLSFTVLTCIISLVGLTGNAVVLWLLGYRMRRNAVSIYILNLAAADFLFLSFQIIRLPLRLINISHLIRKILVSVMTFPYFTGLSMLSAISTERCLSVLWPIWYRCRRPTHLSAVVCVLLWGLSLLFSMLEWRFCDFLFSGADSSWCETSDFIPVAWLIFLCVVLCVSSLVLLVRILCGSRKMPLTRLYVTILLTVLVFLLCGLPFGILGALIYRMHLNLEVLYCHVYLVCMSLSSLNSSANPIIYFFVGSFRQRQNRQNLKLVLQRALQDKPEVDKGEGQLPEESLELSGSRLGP
- PROCEDURE_TEXT: MRGPR X4 antagonist activity, IP-One Gq HTRF assay in stably transfected HEK cells
- Format: cell-based
- Method: HEK cells stably transfected to express human MIRGPR X4 were maintained in an incubator at 37° C. with 5% CO2 and grown in DMEM media with 10% fetal bovine serum (FBS) and […] each of sodium pyruvate, Glutamax, penicillin/streptomycin, and Geneticin. […] Cells were plated in a 384-well assay plate at 20,000 cells per well in 12 μL of Opti-MEM and kept in an incubator overnight. […] The plate was read on a Molecular Devices SpectraMax iD5 plate reader. […]
pIC50: −log10 of the molar value.

| STRUCTURE | pIC50 |
| --- | --- |
| Cc1ccncc1CCNC(=O)c1cn(Cc2ccc(Cl)cc2)c2ccccc12 | 6.30 to 7.00 |
| Cc1cccc2c1c(C(=O)NCCc1nnc3ccccn13)nn2Cc1ccc(Cl)cc1 | > 7.00 |
| O=C(O)c1nn(Cc2cccc(OC(F)(F)F)c2)c2ccccc12 | < 5.60 |
| COc1ccc(CCNC(=O)c2nn(Cc3ccc(Cl)cc3)c3ccccc23)nc1 | 6.30 to 7.00 |
| O=C(NCCc1nnc2ccccn12)c1nn(Cc2ccc3c(c2)CCC3)c2ccc(F)cc12 | > 7.00 |
| Cc1ccc(Cn2cc(C(=O)NCCc3ccccn3)c3ccccc32)cc1 | 6.30 to 7.00 |
| COc1ccccc1CCNC(=O)c1cn(Cc2cccc(F)c2)c2ccccc12 | 5.60 to 6.00 |
| O=C(NCCc1nnc2ccccn12)c1nn(Cc2nnc(-c3ccccc3)o2)c2ccccc12 | 6.30 to 7.00 |
| Cc1ncccc1CCNC(=O)c1nn(Cc2ccc(C(F)(F)F)cc2)c2ccccc12 | 6.30 to 7.00 |
| O=C(NCCc1nnc2ccccn12)c1nn(CC2CCCCC2)c2ccccc12 | 6.00 to 6.30 |
| Cc1cccc(CCNC(=O)c2cn(Cc3ccc(Cl)cc3)c3ccccc23)c1 | 6.30 to 7.00 |
| Cc1ccccc1CCNC(=O)c1cn(Cc2ccc(Cl)cc2)c2ccccc12 | 6.30 to 7.00 |
| COc1ccccc1Cn1nc(C(=O)NCCc2nnc3ccccn23)c2ccccc21 | < 5.60 |
| O=C(NCCc1ccc(=O)[nH]c1)c1cn(Cc2ccc(Cl)cc2)c2ccccc12 | 5.60 to 6.00 |
